Value source: patent US12433868B2

test: clinical
runConditions: both, human, in vivo, po, 400 mg, Cmax, Mean
experimentalEndpoint: Cmax
Returns: string containing the numeric result and its unit.

Task: Identify measured Cmax associated with O=C(NN1C(=O)C2C3C=CC(C4CC34)C2C1=O)c1ccc(C(F)(F)F)cc1 (single isomer, unassigned) [Form V]
Output: 1230 ng/mL

---

test: clinical
runConditions: both, human, in vivo, po, 400 mg, t1/2, Mean
experimentalEndpoint: half-life (h)
Report the figure in h without appending any unit label.

Task: Answer with the recorded half-life for the molecule listed here: O=C(NN1C(=O)C2C3C=CC(C4CC34)C2C1=O)c1ccc(C(F)(F)F)cc1 (single isomer, unassigned) [Form V]
Output: 29.2
